procedure.text: Toxicity liver stage against HepG2, at 10uM
Format: cell-based
Parameters: test concentration 10 uM, cell line HepG2-A16-CD81EGFP
condition.info: human, HepG2-A16-CD81EGFP cells; read-out: INHIBITION

>  <molecule>
Cn1nc(CN2CCC(c3ccncc3)CC2)c2c(Cl)cccc21

>  <cytotoxicity at 10 µM>
-6.06%

$$$$
>  <molecule>
O=C1CCC2(CCCN(Cc3nccs3)C2)N1CC1CC1 (configuration not stated)

>  <cytotoxicity at 10 µM>
-68.4%

$$$$
>  <molecule>
CC(C)(C)CC(=O)NC(C)(C(N)=O)c1cccc(Cl)c1 (configuration not stated)

>  <cytotoxicity at 10 µM>
11.5%

$$$$
>  <molecule>
O=C(c1ccc(N2CCCC2)nn1)N1CCCc2ccc(F)cc21

>  <cytotoxicity at 10 µM>
-1.7%

$$$$
>  <molecule>
Cc1nnc(CSc2n[nH]c(-c3ccccn3)n2)o1

>  <cytotoxicity at 10 µM>
5.81%

$$$$
>  <molecule>
c1ccc(-n2cc(CN3CCCCC3Cn3cncn3)nn2)cc1 (configuration not stated)

>  <cytotoxicity at 10 µM>
-14.2%

$$$$
>  <molecule>
Cc1nc(C)c(CN(C)C2CCN(C(=O)OC(C)(C)C)CC2)s1

>  <cytotoxicity at 10 µM>
3.51%

$$$$
>  <molecule>
CCc1ccc(CN2CCN(C)C3(CCC(=O)N(CC4CC4)CC3)C2)o1 (configuration not stated)

>  <cytotoxicity at 10 µM>
-2.77%

$$$$
>  <molecule>
COCCNC(=O)c1cc2c(c3ccccc3n2C)n1C(=O)N(C)C

>  <cytotoxicity at 10 µM>
-72.6%

$$$$
>  <molecule>
O=C(Cn1ccc2ccc(F)cc21)NC[C@@H]1CCCN2CCCC[C@H]12

>  <cytotoxicity at 10 µM>
14%

$$$$
>  <molecule>
COc1ncccc1NC(=O)NCC(O)c1ccc(F)cc1F (configuration not stated)

>  <cytotoxicity at 10 µM>
30.9%

$$$$
>  <molecule>
O=C(Nc1cccnc1)[C@H]1C[C@H]2CN(Cc3ccc(F)cc3)C[C@@H]1O2

>  <cytotoxicity at 10 µM>
-82.9%

$$$$
>  <molecule>
O=S(=O)(NCC1CCCN(Cc2ccccc2F)C1)C1CC1 (configuration not stated)

>  <cytotoxicity at 10 µM>
-8.27%

$$$$
>  <molecule>
O=C(Nc1ccnn1C1CCCC1)c1ccc(NC2CC2)nc1

>  <cytotoxicity at 10 µM>
4.75%

$$$$
>  <molecule>
COc1ccc(C(C(=O)O)N(C)Cc2c(C)nn(C)c2C)c(C)c1 (configuration not stated)

>  <cytotoxicity at 10 µM>
7.47%

$$$$
>  <molecule>
CCOc1ccccc1OC1CCN(C(=O)c2[nH]nc(C)c2Br)CC1

>  <cytotoxicity at 10 µM>
-8.75%

$$$$
>  <molecule>
COc1ccnc(N2CCN(C(=O)c3ccc(Cl)o3)CC2)n1

>  <cytotoxicity at 10 µM>
-19.2%

$$$$
>  <molecule>
CC(=O)N1CC(C)CN(Cc2ccon2)c2ccccc21 (configuration not stated)

>  <cytotoxicity at 10 µM>
2%

$$$$
>  <molecule>
Cc1csc(CNc2nc3c(s2)c(C)nn3C)n1

>  <cytotoxicity at 10 µM>
-109%

$$$$
>  <molecule>
CN1CC(=O)N(c2ccsc2)CC12CCN(C(=O)c1cccn1C)C2 (configuration not stated)

>  <cytotoxicity at 10 µM>
-75.7%

$$$$
>  <molecule>
O=C(NCCn1ccnc1)NCC(c1ccco1)N1CCCCC1 (configuration not stated)

>  <cytotoxicity at 10 µM>
3.44%

$$$$
>  <molecule>
CC(C)(C)c1cc(C(=O)N2CCC(c3cnccn3)CC2)[nH]n1

>  <cytotoxicity at 10 µM>
0.775%

$$$$
>  <molecule>
C=C(C)COc1cccc(C(=O)N2CCC(O)(c3ccccc3)CC2)c1

>  <cytotoxicity at 10 µM>
-44.9%

$$$$
>  <molecule>
O=C1Nc2ccccc2CNC12CCN(CC1CCCC1)CC2

>  <cytotoxicity at 10 µM>
6.39%

$$$$
>  <molecule>
O=C(O)CC(NC(=O)c1ccccc1OC(F)F)c1cccs1 (configuration not stated)

>  <cytotoxicity at 10 µM>
-10.8%

$$$$
>  <molecule>
Clc1ccc(C2(NCc3noc(C4CC4)n3)CCCC2)cc1

>  <cytotoxicity at 10 µM>
13.3%

$$$$
>  <molecule>
O=S(=O)(c1ccccc1)N1CCOCC(Cc2cccnc2)C1 (configuration not stated)

>  <cytotoxicity at 10 µM>
0.812%

$$$$
>  <molecule>
Cc1noc(C2CCCN(C(=O)c3cc(Cl)ccc3F)C2)n1 (configuration not stated)

>  <cytotoxicity at 10 µM>
2.66%

$$$$
>  <molecule>
COc1cc(CNc2cnn(C(C)(C)C)c(=O)c2Cl)ccn1

>  <cytotoxicity at 10 µM>
55.9%

$$$$
>  <molecule>
Cc1cc(C(N)=O)nc(C2(C)CCCN2Cc2cnn(C)c2C)n1 (configuration not stated)

>  <cytotoxicity at 10 µM>
-20.6%

$$$$
>  <molecule>
CC(=O)Nc1nc(C(=O)NCc2ccc(N3CCCC3)nc2)cs1

>  <cytotoxicity at 10 µM>
-2.6%

$$$$
>  <molecule>
CCNC(=O)CNS(=O)(=O)Cc1cc(-c2ccccc2)no1

>  <cytotoxicity at 10 µM>
-6.71%

$$$$
>  <molecule>
CC(c1nnc(-c2ccccc2)o1)N1CCc2cncnc2C1 (configuration not stated)

>  <cytotoxicity at 10 µM>
8.59%

$$$$
>  <molecule>
Cc1nc(C)n(C2CCCN(C(=O)CCOC(C)C)C2)n1 (configuration not stated)

>  <cytotoxicity at 10 µM>
-1.92%

$$$$
>  <molecule>
Cc1ccsc1CN(C)c1nc2c(cnn2C(C)(C)C)c(=O)[nH]1

>  <cytotoxicity at 10 µM>
33.3%

$$$$
>  <molecule>
COc1ccc2c(=O)ccn(CC(=O)O)c2c1

>  <cytotoxicity at 10 µM>
10.2%

$$$$
>  <molecule>
C1CN(CC2CC2)C(COCC2CC2)c2nnn(CC3CC3)c21 (configuration not stated)

>  <cytotoxicity at 10 µM>
-3.66%

$$$$
>  <molecule>
CCNC(=O)c1ccc(NC2CCOC3(CCCC3)C2)nn1 (configuration not stated)

>  <cytotoxicity at 10 µM>
-5%

$$$$
>  <molecule>
Cc1cc(N2CCC(CO)(CC3CCCCO3)CC2)c2ccccc2n1 (configuration not stated)

>  <cytotoxicity at 10 µM>
4.46%

$$$$
>  <molecule>
Cc1cc(C)c2c(NCC3(O)CCCCC3)ncnc2n1

>  <cytotoxicity at 10 µM>
-7.13%

$$$$
>  <molecule>
CSC(C)(C)CNC(=O)NC1CCN(CC2CC2)C1 (configuration not stated)

>  <cytotoxicity at 10 µM>
0.811%

$$$$
>  <molecule>
Cc1noc(C)c1CN1C[C@@H]2COC[C@H](C(=O)N3CCOCC3)[C@@H]2C1

>  <cytotoxicity at 10 µM>
-70%

$$$$
>  <molecule>
CC(C)Cc1noc(CN2CCC(NC(=O)c3cccs3)CC2)n1

>  <cytotoxicity at 10 µM>
-17.9%

$$$$
>  <molecule>
O=S(=O)(NC1CCC12CCN(CC1CC1)CC2)c1ccccc1 (configuration not stated)

>  <cytotoxicity at 10 µM>
-7.82%

$$$$
>  <molecule>
N#Cc1ccc(NCCC(=O)N2CCCc3ccccc32)nc1

>  <cytotoxicity at 10 µM>
-1.33%

$$$$
>  <molecule>
CCNC(=O)N1CC[C@H]2CC(=O)N(CCN3CCNC3=O)CC[C@H]2C1

>  <cytotoxicity at 10 µM>
2.22%

$$$$
>  <molecule>
CCOc1ccnc(N2CCN(Cc3ncccc3C)CC2)n1

>  <cytotoxicity at 10 µM>
-7.32%

$$$$

---

procedure.text: Toxicity liver stage against HepG2, at 10uM
Assay type: cell-based
Set-up: test concentration 10 uM, cell line HepG2-A16-CD81EGFP
condition.info: human, HepG2-A16-CD81EGFP cells; read-out: INHIBITION

>  <molecule>
Nc1nnc(SCc2cc(=O)n3c4c(sc3n2)CCCC4)s1

>  <cytotoxicity at 10 µM>
7.83%

$$$$
>  <molecule>
CC(C)CC1CC(=O)Nc2c1cnn2Cc1ccco1 (configuration not stated)

>  <cytotoxicity at 10 µM>
-2.75%

$$$$
>  <molecule>
CN(C)C(=O)C1CCC2(CCN(Cc3cnn(C)c3)CC2)C1 (configuration not stated)

>  <cytotoxicity at 10 µM>
5.01%

$$$$
>  <molecule>
Cc1nc(Nc2ncccn2)cc(C2CCCN2C)n1 (configuration not stated)

>  <cytotoxicity at 10 µM>
-16.5%

$$$$
>  <molecule>
O=c1cc2c(nn1CN1CCN(c3ccccc3)CC1)CCCC2

>  <cytotoxicity at 10 µM>
-9.58%

$$$$
>  <molecule>
CC(=O)N(Cc1ncc(C(C)C)o1)C1CCN(Cc2nccn2C)C1 (configuration not stated)

>  <cytotoxicity at 10 µM>
-3.81%

$$$$
>  <molecule>
CCCn1ncc(CN2CCCCC2CCCOC)c1C (configuration not stated)

>  <cytotoxicity at 10 µM>
-15.2%

$$$$
>  <molecule>
Cc1nc(COc2ccc(OCC(N)=O)cc2)oc1C

>  <cytotoxicity at 10 µM>
4.68%

$$$$
>  <molecule>
COc1ccc(CN(Cc2cccnc2)CC2CCCO2)c(OC)c1 (configuration not stated)

>  <cytotoxicity at 10 µM>
1.13%

$$$$
>  <molecule>
NC(=O)C1CN(c2ccc3cc(Br)ccc3n2)CCO1 (configuration not stated)

>  <cytotoxicity at 10 µM>
4.94%

$$$$
>  <molecule>
CCC(Nc1nc(C(C)C)nc2c1cnn2C)c1ccc(O)cc1 (configuration not stated)

>  <cytotoxicity at 10 µM>
-51.2%

$$$$
>  <molecule>
Cc1ccn(CCC(=O)NCCc2ccco2)n1

>  <cytotoxicity at 10 µM>
-4.81%

$$$$
